Test system: MARIMO;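 also: after 48 h exposure read by CellTiter-Glo luminescence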
Experiment: cell viability relative to vehicle control; higher = less cytotoxic
Settings: 10 µM; SRSF2 genotype: SRSF2 P95H/wt
assay-metric: cell viability (%)
Express your answer in %, writing the number without its unit.

Here are 3 compounds together with their reported answers.
compound	cell viability / %
C=C(C)[C@@H]1CC[C@]2(C)CC[C@]3(C)[C@H](CC[C@@H]4[C@@]5(C)CC[C@H](O)C(C)(C)[C@@H]5CC[C@]43C)[C@@H]12 [Lupeol]	109
CCOc1ccc(NC(C)=O)cc1 [Phenacetin]	89.6
N#Cc1ccc(COC[C@H]2O[C@@H](n3c(NCc4ccc(Cl)c(Cl)c4)nc4c(N)ncnc43)[C@H](O)[C@@H]2O)cc1	32.5

Attention now turns to another entry.
Query :: Query (compound): Clc1ccc(C(Cn2ccnc2)OCc2ccc(Sc3ccccc3)cc2)c(Cl)c1 (configuration not stated) [Fenticonazole nitrate] ; field requested: cell viability
Result :: 62.4

----------
Reported cell viability values follow for various molecules
Tested on: MARIMO;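 also: after 48 h exposure read by CellTiter-Glo luminescence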
Experiment: cell viability relative to vehicle control; higher = less cytotoxic
Conditions: 10 µM; SRSF2 genotype: SRSF2 wt/wt
Structures can show the parent of a compound that is named as a salt.
Express your answer in %, writing the number without its unit.

molecule	cell viability / %
CC(C)(C)NC(=O)[C@H]1CC[C@H]2[C@@H]3CC[C@H]4NC(=O)C=C[C@]4(C)[C@H]3CC[C@]12C [Finasteride]	105
COc1cc(OC2CCN(C)CC2)ccc1Nc1ncc2c(n1)n(C1CCCC1)c(=O)n2C	38.6
Cc1c(C(C)C)c(=O)n(-c2ccccc2)n1C [Propyphenazone (4-Isopropylantipyrine)]	105

Query :: Query (molecule): CCn1cc(C(=O)O)c(=O)c2cc(F)c(N3CCNCC3)nc21 ; field requested: cell viability
Result :: 111

Query :: Query (molecule): COc1ccc(COc2ccc(Cc3cnc(N)nc3N)cc2OC)cc1 ; field requested: cell viability
Result :: 92.8

Query :: Query (molecule): COC(=O)N1CCN(Cc2cccc(NC(=O)Nc3ccc(C)nc3)c2F)CC1 ; field requested: cell viability
Result :: 94.2

Query :: Query (molecule): Nc1nc(=O)[nH]c2c1ncn2[C@@H]1O[C@H](CO)[C@@H](O)[C@H]1O ; field requested: cell viability
Result :: 97.7

Query :: Query (molecule): Cc1cc(C)n(C)n1 ; field requested: cell viability
Result :: 109

Query :: Query (molecule): O=CCc1ccccc1 ; field requested: cell viability
Result :: 95.2

Query :: Query (molecule): O=C(COc1cccc2c(=O)[nH]ccc12)c1ccccc1 ; field requested: cell viability
Result :: 88.4

Query :: Query (molecule): COc1ccc(S(=O)(=O)Nc2nc(-c3cccc([N+](=O)[O-])c3)cs2)cc1OC ; field requested: cell viability
Result :: 112

Query :: Query (molecule): CC(C)c1ccc(NC(=O)Cn2cnc3c2c(=O)n(C)c(=O)n3C)cc1 ; field requested: cell viability
Result :: 96.1

Query :: Query (molecule): O=[N+]([O-])c1ccc(S(=O)(=O)N2CCN(c3ccnc4cc(Cl)ccc34)CC2)c([N+](=O)[O-])c1 ; field requested: cell viability
Result :: 30.7

Query :: Query (molecule): C=C[C@@H]1C[C@]1(NC(=O)[C@@H]1C[C@@H]2CN1C(=O)[C@H](C(C)(C)C)NC(=O)O[C@@H]1C[C@H]1CCCCCc1nc3ccc(OC)cc3nc1O2)C(=O)NS(=O)(=O)C1CC1 ; field requested: cell viability
Result :: 123

Query :: Query (molecule): c1cc2c(c3c1C[C@H]1c4cc5c(cc4CCN1C3)OCO5)OCO2 [Stylopine hydrochloride] ; field requested: cell viability
Result :: 96.3

Query :: Query (molecule): O=C1NC(=O)C(c2ccccc2[N+](=O)[O-])=C1Nc1ccc(O)c(Cl)c1 ; field requested: cell viability
Result :: 91.9

Query :: Query (molecule): COc1ccc(-c2coc3cc(O)ccc3c2=O)cc1 ; field requested: cell viability
Result :: 91.4

Query :: Query (molecule): Nc1cc(C(Cl)=C(Cl)Cl)c(S(N)(=O)=O)cc1S(N)(=O)=O ; field requested: cell viability
Result :: 107
